Target: c-Met kinase (Homo sapiens, UniProt P08581)
Construct: recombinant N-terminal 6×His-tagged c-Met kinase domain construct expressed from baculovirus; 6xHis (N); made in house
Sequence (P08581 1078-1345 limits assumed): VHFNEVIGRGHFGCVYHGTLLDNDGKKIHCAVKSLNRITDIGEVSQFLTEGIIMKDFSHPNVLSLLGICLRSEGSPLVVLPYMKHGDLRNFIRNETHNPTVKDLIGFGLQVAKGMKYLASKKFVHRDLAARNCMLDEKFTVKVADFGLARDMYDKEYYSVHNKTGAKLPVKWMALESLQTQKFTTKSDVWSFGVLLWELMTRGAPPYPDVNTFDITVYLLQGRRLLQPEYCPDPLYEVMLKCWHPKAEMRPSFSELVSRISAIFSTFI
Test: c-Met kinase assay (33P incorporation into Poly(Glu-Tyr))
Type: biochemical
Conditions: 500 nM test compound
measured.attribute: inhibition at 0.5 µM (%)

>  <query.smiles>
CCOC(=O)CCc1c(C=C2C(=S)Nc3ccccc32)[nH]c2c1C(=O)CCC2

>  <target.desc>
c-Met kinase (Homo sapiens, UniProt P08581)

>  <test.result>
29.8

$$$$
>  <query.smiles>
CCOC(=O)CCc1c(/C=C2\C(=O)Nc3ccc(NS(=O)(=O)c4ccccc4)cc32)[nH]c2c1C(=O)CC(C)(C)C2

>  <target.desc>
c-Met kinase (Homo sapiens, UniProt P08581)

>  <test.result>
12.7

$$$$

[1] CCOC(=O)CCc1c(/C=C2\C(=O)Nc3ccc(S(=O)(=O)Cc4c(Cl)cccc4Cl)cc32)[nH]c2c1C(=O)CCC2
[2] O=C(O)CCc1c(/C=C2\C(=O)Nc3ccccc32)[nH]c2c1C(=O)CCC2
(Q) Which one would you say has the larger inhibition at 0.5 µM value: 1 , or 2 ? Kindly give the label for the entry you pick.
(A) 1
(1: 92.1%, 2: 14.3%)

====

Target: Aurora B kinase (Homo sapiens, UniProt Q96GD4)
Construct: purchased Cell signaling
Sequence (Q96GD4 whole entry): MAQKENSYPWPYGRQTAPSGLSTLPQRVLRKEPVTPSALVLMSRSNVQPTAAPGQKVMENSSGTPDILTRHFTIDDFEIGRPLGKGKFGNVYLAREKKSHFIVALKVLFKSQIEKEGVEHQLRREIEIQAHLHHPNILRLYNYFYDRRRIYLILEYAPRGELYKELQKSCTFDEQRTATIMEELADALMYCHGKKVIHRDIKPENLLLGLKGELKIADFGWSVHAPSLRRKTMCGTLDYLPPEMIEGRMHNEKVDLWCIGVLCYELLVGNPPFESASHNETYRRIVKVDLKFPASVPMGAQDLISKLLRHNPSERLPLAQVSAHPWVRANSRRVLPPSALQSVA
Test: Aurora B kinase assay ([γ-33P]ATP, CHOCKtide substrate)
Assay type: biochemical
Details: 1.0 μM test compound
measured.attribute: inhibition at 1 µM (%)

Use the examples below as a reference point.
>  <compound>
CCN(CC)CCNC(=O)CCc1c(/C=C2\C(=O)Nc3ccc(F)cc32)[nH]c(C)c1C(C)=O [DCB-70213]

>  <test.result>
16.4

$$$$
>  <compound>
O=C(O)CCc1c(/C=C2\C(=O)Nc3ccc(NS(=O)(=O)c4ccccc4)cc32)[nH]c2c1C(=O)CCC2 [DCB-70103]

>  <test.result>
80.1

$$$$
>  <compound>
O=C(O)CCc1c(/C=C2\C(=O)Nc3ccccc32)[nH]c2c1C(=O)CCC2 [DCB-70052]

>  <test.result>
13

$$$$
>  <compound>
CCCCCCC#Cc1ccc2c(c1)/C(=C/c1[nH]c3c(c1CCC(=O)OCC)C(=O)CCC3)C(=O)N2 [DCB-70172]

>  <test.result>
-3.2

$$$$
>  <compound>
CCS(=O)(=O)Nc1ccc2c(c1)/C(=C/c1[nH]c3c(c1CCC(=O)O)C(=O)CCC3)C(=O)N2 [DCB-70119]

>  <test.result>
7.3

$$$$

[1] CCOC(=O)CCc1c(/C=C2\C(=O)Nc3ccc(NC(=O)NC45CC6CC(CC(C6)C4)C5)cc32)[nH]c2c1C(=O)CCC2 [DCB-70174]
[2] O=C(O)CCc1c(/C=C2\C(=O)Nc3ccc([N+](=O)[O-])cc32)[nH]c2c1C(=O)CCC2 [DCB-70063]
(Q) Which one would you say has the larger inhibition at 1 µM value: 1 , or 2 ? Kindly give the label for the entry you pick.
(A) 2
(2: 3.4%, 1: -11.4%)

====

Molecular target: Aurora A kinase (Homo sapiens)
Construct: purchased Upstate
Sequence (O14965 1-403): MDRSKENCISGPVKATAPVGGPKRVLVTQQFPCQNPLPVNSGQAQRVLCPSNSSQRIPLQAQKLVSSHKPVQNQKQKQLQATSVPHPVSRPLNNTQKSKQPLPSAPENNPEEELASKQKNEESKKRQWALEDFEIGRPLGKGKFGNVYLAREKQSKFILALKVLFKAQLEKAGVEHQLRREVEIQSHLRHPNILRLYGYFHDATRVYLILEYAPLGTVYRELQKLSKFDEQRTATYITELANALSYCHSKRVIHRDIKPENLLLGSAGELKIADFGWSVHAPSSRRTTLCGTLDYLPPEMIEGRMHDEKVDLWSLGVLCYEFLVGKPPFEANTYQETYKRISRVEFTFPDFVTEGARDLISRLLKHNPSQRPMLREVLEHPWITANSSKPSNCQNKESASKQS
Assay: Aurora A kinase assay ([γ-33P]ATP, CHOCKtide substrate)
Type: biochemical
Conditions: 1.0 μM test compound
measured.attribute: inhibition at 1 µM (%)

Use the examples below as a reference point.
>  <query.smiles>
CCOC(=O)CCc1c(/C=C2\C(=O)Nc3ccc(NC(=O)Nc4ccc(Cl)cc4Cl)cc32)[nH]c2c1C(=O)CCC2

>  <unit.of.measure>
%

>  <test.result>
6.6

$$$$
>  <query.smiles>
CCOC(=O)CCc1c(/C=C2\C(=O)Nc3ccc(NC(=O)Nc4ccc(C)cc4)cc32)[nH]c2c1C(=O)CCC2

>  <unit.of.measure>
%

>  <test.result>
7.6

$$$$

[I] CN1CCN(C(=O)CCc2c(/C=C3\C(=O)Nc4ccc(S(=O)(=O)N5CCCC5)cc43)[nH]c3c2C(=O)CCC3)CC1
[II] CCN(CC)CCNC(=O)CCc1c(/C=C2\C(=O)Nc3ccc(F)cc32)[nH]c(C)c1C(C)=O
(Q) Which one would you say has the larger inhibition at 1 µM value: I , or II ? Kindly give the label for the entry you pick.
(A) I
(I: 50.5%, II: 1%)

====

Target: Flt3 kinase (Homo sapiens, UniProt P36888)
Construct: recombinant N-terminal 6×His-tagged Flt3 kinase domain construct expressed from baculovirus; 6xHis (N); made in house
Sequence (P36888 610-943 limits assumed): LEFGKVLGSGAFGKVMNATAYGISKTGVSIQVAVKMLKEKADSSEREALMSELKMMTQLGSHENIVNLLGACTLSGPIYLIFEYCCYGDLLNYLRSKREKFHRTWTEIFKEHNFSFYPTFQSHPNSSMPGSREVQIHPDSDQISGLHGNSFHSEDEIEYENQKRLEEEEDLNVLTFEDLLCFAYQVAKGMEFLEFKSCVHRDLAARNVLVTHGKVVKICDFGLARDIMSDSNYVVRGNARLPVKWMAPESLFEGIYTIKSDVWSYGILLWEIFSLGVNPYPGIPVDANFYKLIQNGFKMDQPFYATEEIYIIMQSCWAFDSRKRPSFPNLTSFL
Experiment: Flt3 kinase assay (33P incorporation into Poly(Glu-Tyr))
Assay type: biochemical
Conditions: 100 nM test compound; read-out: Inhibition at 100 nM (%) Flt-3
measured.attribute: inhibition at 0.1 µM (%)

Use the examples below as a reference point.
>  <query.smiles>
CCOC(=O)CCc1c(/C=C2\C(=O)Nc3ccc(NC(=O)Nc4ccc(F)cc4)cc32)[nH]c2c1C(=O)CCC2

>  <inhibition at 0.1 µM [%]>
39.3

$$$$
>  <query.smiles>
O=C(O)CCc1c(/C=C2\C(=O)Nc3ccc(NS(=O)(=O)c4ccccc4)cc32)[nH]c2c1C(=O)CCC2

>  <inhibition at 0.1 µM [%]>
44.7

$$$$

[1] O=C(O)CCc1c(/C=C2\C(=O)Nc3cc(-c4ccc(O)cc4)ccc32)[nH]c2c1C(=O)CCCC2
[2] O=C(O)CCc1c(/C=C2\C(=O)Nc3ccc(NCc4ccccc4)cc32)[nH]c2c1C(=O)CCC2
(Q) Look at 1 and 2 . Which one has the lower recorded inhibition at 0.1 µM number? Kindly give the label for the entry you pick.
(A) 2

====

Molecular target: Aurora A kinase (Homo sapiens, UniProt O14965)
Construct: purchased Upstate
Test: Aurora A kinase assay ([γ-33P]ATP, CHOCKtide substrate)
Format: biochemical
Conditions: 1.0 μM test compound
measured.attribute: inhibition at 1 µM (%)

Use the examples below as a reference point.
>  <query.smiles>
O=C(O)CCc1c(/C=C2\C(=O)Nc3ccc(S(=O)(=O)N4CCOCC4)cc32)[nH]c2c1C(=O)CCC2

>  <measured.attribute>
inhibition at 1 µM

>  <test.result>
99.3

$$$$
>  <query.smiles>
O=C(O)CCc1c(/C=C2\C(=O)Nc3ccc(NS(=O)(=O)c4ccc(F)cc4)cc32)[nH]c2c1C(=O)CCC2

>  <measured.attribute>
inhibition at 1 µM

>  <test.result>
90.3

$$$$
>  <query.smiles>
CCN(CC)C(=O)CCc1c(/C=C2\C(=O)Nc3ccc(F)cc32)[nH]c2c1C(=O)CCC2

>  <measured.attribute>
inhibition at 1 µM

>  <test.result>
11.9

$$$$
>  <query.smiles>
O=C(O)CCc1c(/C=C2\C(=O)Nc3ccccc32)[nH]c2c1C(=O)CCC2

>  <measured.attribute>
inhibition at 1 µM

>  <test.result>
74.8

$$$$

[I] CCOC(=O)CCc1c(/C=C2\C(=O)Nc3ccc(-c4ccc(O)c(OC)c4)cc32)[nH]c2c1C(=O)CCC2
[II] Cc1ccc(NC(=O)Nc2ccc3c(c2)/C(=C/c2[nH]c4c(c2CCC(=O)O)C(=O)CCC4)C(=O)N3)cc1
[III] CCCCCCC#Cc1ccc2c(c1)NC(=O)/C2=C\c1[nH]c2c(c1CCC(=O)OCC)C(=O)CCC2
(Q) Ranking field: inhibition at 1 µM; order: falling. Output the labels ranked as instructed.
(A) II, I, III
(II: 70.5%, I: 17.7%, III: 10.5%)

Just for reference, patent US7897602B2 is where these values come from.
